IC50 values for hCRTH2 receptor (Homo sapiens (Human)) compiled from several publications are listed below.
One number for each entry, in nM.

compound: COc1ccc(CC(=O)O)cc1-c1ccc(F)c2c1CN(C(=O)COc1ccc(F)cc1)CC2
IC50 / nM: 59.1
//
compound: CS(=O)(=O)c1ccc(CC(=O)O)cc1-c1ccc(F)c2c1CN(C(=O)[C@@H]1C[C@H]1c1ccccc1)CC2
IC50 / nM: 6.6
//
compound: O=C(O)COc1ccc(Cl)cc1C1c2scnc2CCN1C(=O)CC1(c2ccccc2)CC1 (racemic)
IC50 / nM: 130

Batch lookup, IC50 per entry.
1. O=C(O)Cc1ccc(OCC(F)(F)F)c(-c2ccc(F)c3c2CN(C(=O)[C@@H]2C[C@H]2c2ccccc2)CC3)c1
2. COc1ccc(CC(=O)O)cc1-c1ccc(S(C)(=O)=O)c2c1CN(C(=O)OCc1ccccc1)CC2
3. CCC(=O)N(Cc1ccc(OC)cc1)c1cc(F)cc(-c2nnn[nH]2)c1
4. COc1ccc(CC(=O)O)cc1-c1ccc(F)c2c1CCN(C(=O)OCc1ccccc1)CC2

Out:
1: 1.9; 2: 149; 3: 9; 4: 141

* * *

Below are IC50 values for UniProt:Q9Y5Y4 collected from several publications.
Numbers only, in nM.

compound: CCC(=O)N(Cc1ccc2c(c1)OCCO2)c1cc(-c2nnn[nH]2)ccc1F
measured attribute: IC50
recorded value: 15

Batch of 2 compounds: report IC50 for each.
1. CCCNC(=O)N1CCc2c(F)ccc(-c3ccc(CC(=O)O)cc3OCC)c2C1
2. CCCc1nc2c(s1)C(c1cc(Cl)ccc1OCC(=O)O)N(C(=O)OCc1ccccc1)CC2 (racemic)

Out:
78.2
86.4

* * *

Literature compilation of pIC50 measurements on hCRTH2 receptor (Homo sapiens (Human)).
Answers are plain numbers, as −log10 of the molar value.

molecule: CCOc1ccc(CC(=O)O)cc1-c1ccc(F)c2c1CN(C(=O)OCc1cnccn1)CC2
measured attribute: pIC50
recorded value: 8.41

molecule: COc1ccc(CC(=O)O)cc1-c1ccc(F)c2c1CN(C(=O)CC1Cc3ccccc3C1)CC2
measured attribute: pIC50
recorded value: 8.09

molecule: CCCC(=O)N(Cc1ccc(OC(F)(F)F)cc1)c1cc(Cl)cc(-c2nnn[nH]2)c1
measured attribute: pIC50
recorded value: 7.80

molecule: O=C(O)Cc1cc(Cl)cc(-c2ccc(F)c3c2CN(C(=O)OCc2ccccc2)CC3)c1
measured attribute: pIC50
recorded value: 7.69

molecule: CCCCC(=O)N(Cc1ccsc1)c1cccc(-c2nnn[nH]2)c1
measured attribute: pIC50
recorded value: 6.12

molecule: O=C(O)COc1ccc(Cl)cc1C1c2scnc2CCN1C(=O)OCCc1ccccc1 (racemic)
measured attribute: pIC50
recorded value: 8.19

molecule: COc1ccc(CC(=O)O)cc1-c1ccc(Cl)c2c1CN(C(=O)COCc1ccccc1Cl)CC2
measured attribute: pIC50
recorded value: 7.52

molecule: CCC(=O)N(Cc1nc2ccccc2s1)c1cccc(-c2nnn[nH]2)c1
measured attribute: pIC50
recorded value: 6.18

molecule: COc1ccc(CC(=O)O)cc1-c1c(F)ccc2c1CN(C(=O)OCc1ccccc1)CC2
measured attribute: pIC50
recorded value: 6.95

molecule: Cc1ccc(CCC(=O)N(Cc2ccc(S(C)(=O)=O)cc2)c2cc(F)cc(-c3nnn[nH]3)c2)cc1
measured attribute: pIC50
recorded value: 8.54

Report pIC50 for each item below.
1. COc1ccc(CC(=O)O)cc1-c1ccc(F)c2c1CCN(C(=O)CCCc1ccccc1)C2
2. O=C(O)Cc1cc(-c2ccc(F)c3c2CN(C(=O)OCc2ccccc2)CC3)ccc1F

Out:
6.98
7.66

I have 6 molecules here; please give me pIC50 for each one.
1. COc1ccc(CC(=O)O)cc1-c1ccc(F)c2c1CN(C(=O)CCc1cccnc1)CC2
2. CN(C1CCC(c2cn(CC(=O)O)c3ccccc23)C1)S(=O)(=O)c1ccc(F)cc1 (centres unmarked)
3. COc1ccc(CC(=O)O)cc1-c1ccc(F)c2c1CN(C(=O)NCc1ccccc1F)CC2
4. CCOc1ccc(CC(=O)O)cc1-c1ccc(F)c2c1CN(C(=O)OCc1cccc(F)c1)CC2
5. COc1ccc(CC(=O)O)cc1-c1ccc(F)c2c1CN(C(=O)CC1CC1)CC2
6. CCOc1ccc(CC(=O)O)cc1-c1ccc(F)c2c1CN(C(=O)Cc1ccccn1)CC2

Out:
[7.24, 7.28, 7.75, 8.33, 6.21, 6.05]

* * *

Below are IC50 measurements against hCRTH2 receptor (Homo sapiens (Human)) drawn from the literature.
Numbers only, in nM.

Below: 5 compounds and their reported IC50.
compound: CCC(=O)N(Cc1ccc(-c2cnoc2)cc1)c1cc(F)cc(-c2nnn[nH]2)c1
IC50 [nM]: 113

compound: CS(=O)(=O)Nc1nc2c(s1)C(c1cc(Cl)ccc1OCC(=O)O)N(C(=O)OCc1ccccc1)CC2 (racemic)
IC50 [nM]: 254

compound: COc1ccc(CC(=O)O)cc1-c1ccc(F)c2c1CN(C(=O)CC1(c3ccccc3)CCC1)CC2
IC50 [nM]: 146

compound: COc1ccc(CC(=O)O)cc1-c1ccc(F)c2c1CN(C(=O)OCc1cccc(F)c1F)CC2
IC50 [nM]: 2.51

compound: CC(C)Oc1ccc(CC(=O)O)cc1-c1ccc(C#N)c2c1CN(C(=O)OCc1ccccc1)CC2
IC50 [nM]: 1.4

In: Data request, read-out IC50, for O=C(O)COc1ccc(Cl)cc1[C@@H]1c2scnc2CCN1C(=O)OCc1cc(F)ccc1F
Out: 1

* * *

// merged dataset of IC50 values, system = hCRTH2 receptor (Homo sapiens (Human), UniProt Q9Y5Y4), multiple refs
Sequence (Q9Y5Y4 whole entry): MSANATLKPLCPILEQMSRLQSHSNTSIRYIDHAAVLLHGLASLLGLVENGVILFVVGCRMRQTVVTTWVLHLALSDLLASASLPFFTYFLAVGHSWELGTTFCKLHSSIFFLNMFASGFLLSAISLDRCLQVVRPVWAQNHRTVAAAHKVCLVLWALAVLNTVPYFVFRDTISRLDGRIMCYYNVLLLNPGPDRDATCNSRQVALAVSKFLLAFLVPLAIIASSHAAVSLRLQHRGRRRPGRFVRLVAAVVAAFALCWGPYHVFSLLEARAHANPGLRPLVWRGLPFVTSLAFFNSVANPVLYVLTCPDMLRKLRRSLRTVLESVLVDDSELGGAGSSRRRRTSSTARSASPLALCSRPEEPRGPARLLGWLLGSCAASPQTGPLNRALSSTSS
Numbers only, in nM.

Before answering, review these 3 worked examples.
compound: CCOc1cc(CC(=O)O)ccc1-c1ccc(F)c2c1CN(C(=O)CC(CC)c1ccccn1)CC2 (racemic)
measured attribute: IC50
recorded value: 7.8
//
compound: O=C(O)COc1ccc(Cl)cc1C1c2scnc2CCN1C(=O)CCN1CCc2ccccc21 (racemic)
measured attribute: IC50
recorded value: 17.7
//
compound: COc1ccc(CC(=O)O)cc1-c1ccc(F)c2c1CCN(C(=O)COCc1ccccc1Cl)C2
measured attribute: IC50
recorded value: 69.2

Working through the 2 compounds below one at a time, give IC50 for each.
1. COc1ccc(CC(=O)O)cc1-c1ccc(F)c2c1CN(C(=O)OCCc1scnc1C)CC2
2. CCC(=O)N(Cc1ccc(-c2cn(C)nc2C)cc1)c1cc(F)cc(-c2nnn[nH]2)c1

Out:
1. 40.7
2. 21

* * *

pIC50: −log10 of the molar value.
Header: pIC50 / hCRTH2 receptor (Homo sapiens (Human)) / multiple publications
Record condition met whenever pIC50 is at 8 or higher; record condition not met when lower.

compound: CS(=O)(=O)c1ccc(CN(C(=O)c2ccccc2)c2cc(F)cc(-c3nnn[nH]3)c2)cc1
target or system: hCRTH2 receptor (Homo sapiens (Human))
group: condition met
//
compound: O=C(O)COc1ccc(Cl)cc1C1c2scnc2CCN1C(=O)OCc1ccccc1Cl (racemic)
target or system: hCRTH2 receptor (Homo sapiens (Human))
group: condition met
//
compound: O=C(O)COc1ccc(Cl)cc1C1c2scnc2CCN1C(=O)NCCc1ccccc1 (racemic)
target or system: hCRTH2 receptor (Homo sapiens (Human))
group: condition met

Then this compound:
In: Could you please find out whether CC(C)c1cc(CC(=O)O)ccc1-c1ccc(F)c2c1CN(C(=O)OCc1ccccc1)CC2 has pIC50 that meets 8 or exceeds it?
Out: condition not met

* * *

Recorded IC50 for compounds tested on UniProtKB Q9Y5Y4, drawn from a number of studies.
Numbers only, in µM.

Below, each entry is followed by its recorded IC50 result.
compound: CC(C)Oc1cc(CC(=O)O)ccc1-c1ccc(F)c2c1CN(C(=O)OCc1ccccc1)CC2
target or system: UniProtKB Q9Y5Y4
IC50 (µM): 0.0023
//
compound: CS(=O)(=O)c1ccc(CN(C(=O)C2CCOCC2)c2cc(F)cc(-c3nnn[nH]3)c2)cc1
target or system: UniProtKB Q9Y5Y4
IC50 (µM): 0.032
//
compound: CC(C)(CC(=O)N1CCc2c(F)ccc(-c3ccc(CC(=O)O)cc3OCC(F)(F)F)c2C1)c1ccccc1
target or system: UniProtKB Q9Y5Y4
IC50 (µM): 0.0089
//
compound: CCOc1ccc(CC(=O)O)cc1-c1ccc(F)c2c1CN(C(=O)CC1CCCc3cccnc31)CC2 (racemic)
target or system: UniProtKB Q9Y5Y4
IC50 (µM): 0.0082
//
compound: O=C(O)Cn1cc(C2CCN(S(=O)(=O)c3ccc(F)cc3)C2)c2ccccc21 (stereo not shown)
target or system: UniProtKB Q9Y5Y4
IC50 (µM): 0.0055

Fill in IC50 for each of the 7 compounds listed.
1. COc1ccc(CC(=O)O)cc1-c1ccc(F)c2c1CN(C(=O)NCc1ccc(F)cc1)CC2
2. CCOc1cc(CC(=O)O)ccc1-c1ccc(F)c2c1CN(C(=O)OCc1ccccn1)CC2
3. CCC(=O)N(Cc1c(C)noc1-c1ccccc1)c1cccc(-c2nnn[nH]2)c1
4. O=C(O)COc1ccc(Cl)cc1C1c2sc(Br)nc2CCN1C(=O)OCc1ccccc1 (racemic)
5. O=C(O)COc1ccc(Cl)cc1C1c2scnc2CCN1C(=O)COc1ccccc1 (racemic)
6. COc1ccc(CC(=O)O)cc1-c1ccc(F)c2c1CN(C(=O)NCc1ccccc1Cl)CC2
7. CCCCC(=O)N(Cc1cccc(O)c1)c1cccc(-c2nnn[nH]2)c1

Out:
1. 0.0151
2. 0.0037
3. 2.18
4. 0.003
5. 0.0874
6. 0.0215
7. 0.14

In: Record request: IC50 value, item CN(C1CCc2c(c3ccccc3n2CC(=O)O)C1)S(=O)(=O)c1ccc(Cc2ccccc2)s1 (stereo not shown)
Out: 0.059
